biological target: human GPR84 receptor (Homo sapiens); construct: frozen aliquots prepared by acCELLerate; assay: cAMP HTRF assay for identification of cellular GPR84 antagonists; settings: CHO-K1 cells stably expressing human GPR84; Forskolin + agonist 6-OAU (EC80); average or median values
Sequence (Q9NQS5 whole entry): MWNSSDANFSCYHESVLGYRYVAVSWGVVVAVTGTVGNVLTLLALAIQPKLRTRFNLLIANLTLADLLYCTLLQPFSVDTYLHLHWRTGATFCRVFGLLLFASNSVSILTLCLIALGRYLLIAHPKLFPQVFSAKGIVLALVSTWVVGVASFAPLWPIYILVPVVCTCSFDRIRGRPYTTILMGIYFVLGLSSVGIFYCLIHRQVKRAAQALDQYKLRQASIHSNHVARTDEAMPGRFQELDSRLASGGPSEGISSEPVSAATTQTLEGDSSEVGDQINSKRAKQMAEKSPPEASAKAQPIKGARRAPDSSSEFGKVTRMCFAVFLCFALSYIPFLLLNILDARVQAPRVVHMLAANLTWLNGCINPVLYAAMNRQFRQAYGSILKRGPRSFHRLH
I'd appreciate it if you could supply IC50 values for the items below.
Could you give me the number in nM? Just the number is fine.

**Query** If you can, please state the reported IC50 value of CC1(C)Cc2oc(C(=O)NC[C@@H]3CCCO3)c(C(F)(F)F)c2-c2nn(C[C@H]3COCCO3)cc21 .
**Result** 38

**Query** Using the record for Cc1c(C(=O)NC[C@@H]2CCCO2)oc2c1-c1nn(C[C@H]3CCO3)cc1CC2 , report its IC50.
**Result** 620

**Query** What measured IC50 goes with Cc1c(C(=O)NCc2ccn(C)n2)oc2c1-c1nn(C[C@H]3COCCO3)cc1C1(CC1)C2 ?
**Result** 170

**Query** Give its IC50 value. Item: Cc1ccc(Cn2cc3c(n2)-c2c(oc(C(=O)NCc4ccn(C)n4)c2C(F)(F)F)CC32CCC2)nc1
**Result** 53

* * *

Give measured log10(IC50) for each item. Keep answers brief.
target: human GPR84 receptor (Homo sapiens); construct: frozen aliquots prepared by acCELLerate; host or cells: CHO-K1; test: cAMP HTRF assay for identification of cellular GPR84 antagonists; assay type: cell-based; settings: CHO-K1 cells stably expressing human GPR84; Forskolin + agonist 6-OAU (EC80); average or median values
Field: value | Transform: log10 | Quantity: IC50 | Unit: nM

**Query** Give the reported log10(IC50) for Cc1cccc(Cn2cc3c(n2)-c2c(oc(C(=O)NCc4ncco4)c2C)CC3)n1 (system: human GPR84 receptor (Homo sapiens)).
**Result** 2.38

**Query** Hi! What's the reported log10(IC50) for Cc1c(C(=O)NC[C@@H]2CCCO2)oc2c1-c1nn(Cc3ccccn3)cc1C1(CC1)C2 on human GPR84 receptor (Homo sapiens)?
**Result** 1.00

**Query** Requested read-out log10(IC50), target or system human GPR84 receptor (Homo sapiens), entry O=C(NC[C@@H]1CCCO1)c1cc2c(o1)CCc1cn(Cc3ccccn3)nc1-2
**Result** 3.00

**Query** Hi! What's the reported log10(IC50) for Cc1conc1CNC(=O)c1oc2c(c1C)-c1nn(Cc3ccccn3)cc1CC2 on human GPR84 receptor (Homo sapiens)?
**Result** 3.08

**Query** Short answer please: log10(IC50), human GPR84 receptor (Homo sapiens), entry Cc1c(C(=O)NCc2cc(C3CC3)on2)oc2c1-c1nn(CC3COc4ncccc4O3)cc1CC2 (racemic) [Example 50]
**Result** 1.54

**Query** Report log10(IC50) for Cc1cc(Cn2cc3c(n2)-c2c(oc(C(=O)NC[C@@H]4COCCO4)c2C)CC3)ccn1 tested on human GPR84 receptor (Homo sapiens).
**Result** 1.76

**Query** Which measured log10(IC50) belongs to O=C(NCCc1nccs1)c1oc2c(c1C(F)(F)F)-c1nn(C[C@H]3COCCO3)cc1CC2 , tested on human GPR84 receptor (Homo sapiens)?
**Result** 2.70

**Query** State its log10(IC50) on human GPR84 receptor (Homo sapiens): O=C(NCc1cnc(C2CC2)cn1)c1oc2c(c1C(F)(F)F)-c1nn(C[C@H]3COCCO3)cc1CC2
**Result** 0.48
